The values you see were collected from patent US20240417469A1.

Catalogue of pKd values
Biological target: T1, recombinant CD3D&E protein (human CD3-his tag) (human, UniProt P04234 22-105; P07766 23-126, limits assumed)
T1 construct: Analyte in Biacore; also called CD3D&E-His; CD3d&ε-His
T1 sequence (P04234 22-105 limits assumed, chain 1 of 2): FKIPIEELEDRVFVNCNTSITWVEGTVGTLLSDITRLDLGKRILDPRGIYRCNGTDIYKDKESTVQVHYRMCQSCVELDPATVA
T1 sequence (P07766 23-126 limits assumed, chain 2 of 2): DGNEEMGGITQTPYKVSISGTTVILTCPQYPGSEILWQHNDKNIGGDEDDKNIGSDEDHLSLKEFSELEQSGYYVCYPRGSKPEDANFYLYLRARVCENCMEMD
Test: SPR Biacore, Ab captured on Protein A;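 further: humanized antibodies on a Protein A chip, human CD3-his analyte flowed over in serial dilutions for 3 min, dissociation tracked 120–360 s on a Biacore T200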
When answering, recall that pKd equals minus log10 of the concentration in mol/L, and write that number alone.

Example entries begin here.
BINDER	pKd
Hu153A6B1-10 (antibody, V domains shown, humanized mAb) VH: EVQLQESGPGLVKPSETLSLTCTVSGGSISSYNIHWVRQPPGKGLEWMGRIRYNGDTSYNSALKSRLTISRDTSKNQFSLKLSSVTAADTAVYYCTRGPYGGSREPLFDYWGQGTMVTVSS VL: DIQMTQSPSSLSASVGDRVTITCKTSQNINKYLNWFQQKPGKAPKLLIYTTNNLQTGIPSRFSGSGSGTDFTLTISSLQPEDFATYYCLQHGSGYTFGQGTKLEIK	7.15
Hu155A9B1-16 (antibody, V domains shown, humanized mAb; also called 155z16) VH: EVQLQESGPGLVKPSETLSLTCTVSGGSISSYNVHWVRQPPGKGLEWMGRVRYNGDTSYNSALKSRLTISRDTSKNQFSLKLSSVTAADTAVYYCTRGPYGGSSEPLFDYWGQGTMVTVSS VL: DIQMTQSPSSLSASVGDRVTITCKASQNINKYLNWFQQKPGKAPRLLIYTTNNLQTGIPSRFSGSGSGTDFTLTISSLQPEDFATYFCLQHNSGYTFGQGTKLEIK	7.02
Hu192A7B9-19 (antibody, V domains shown, humanized mAb) VH: EVQLQESGPGLVKPSETLSLTCTVSGGSISSYNVHWIRQPPGKGLEWIGRMRYNGDTSYNSALKSRVTISVDTSKNQFSLKLSSVTAADTAVYYCARGPRGGYYSALFDYWGQGTMVTVSS VL: DIQMTQSPSSLSASVGDRVTITCKASQNINRYLNWYQQKPGKAPKVLISIANSLQTGIPSRFSGSGSGTDFTLTISSLQPEDFATYFCLQHNSWYTFGQGTKLEIK	7.46

Task: Need pKd, item Hu153A6B1-3 (antibody, V domains shown, humanized mAb) VH: EVQLQESGPGLVKPSETLSLTCTVSGGSISSYNIHWVRQPPGKGLEWMGRIRYNGDTSYNSALKSRLTISRDTSKNQFSLKLSSVTAADTAVYYCARGPYGGSREPLFDYWGQGTMVTVSS VL: DIQMTQSPSSLSASVGDRVTITCKTSQNINKYLNWYQQKPGKAPKLLIYTTNNLQTGVPSRFSGSGSGTDFTLTISSLQPEDFATYYCLQHGSGYTFGQGTKLEIK
Output: 7.23

Task: What about Hu155A9B1-4 (antibody, V domains shown, humanized mAb) VH: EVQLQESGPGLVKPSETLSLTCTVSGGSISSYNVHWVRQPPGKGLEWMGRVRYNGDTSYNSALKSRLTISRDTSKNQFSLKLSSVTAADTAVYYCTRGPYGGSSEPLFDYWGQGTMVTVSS VL: DIQMTQSPSSLSASVGDRVTITCKASQNINKYLNWYQQKPGKAPRLLIYTTNNLQTGVPSRFSGSGSGTDFTLTISSLQPEDFATYYCLQHNSGYTFGQGTKLEIK ?
Output: 7.80
